- test.target: growth factor receptors
- assay.details: cell-based or functional assay
measured.metric: p-Smad1/5/8 (%)
All answers are understood in %, so give the number only.

For orientation, consider the following solved cases.
- TKPTSTPTKLSPINMLYF [GFR-binding compound of SEQ ID NO: 65]: 36
- VSQDLRSVKVAKV [GFR-binding compound of SEQ ID NO: 89]: 36
- RVPSTSSAPTKTSATSVLYY [GFR-binding compound of SEQ ID NO: 81]: 34

Name the reported p-Smad1/5/8 (%) value associated with the binder HVPKPSSAPTKLEPISILYL [GFR-binding compound of SEQ ID NO: 100]
75

Suppose we examine the binder SIPKASSTPTELSPINMLYF [GFR-binding compound of SEQ ID NO: 64] ; what p-Smad1/5/8 (%) value has been reported?
37

For the binder shown here, ASAAPSSVPQALEPLTILYY [GFR-binding compound of SEQ ID NO: 77] , give the reported p-Smad1/5/8 (%).
55

Which p-Smad1/5/8 (%) value belongs to SSVKSQPSRVHHKPLSMLYV [GFR-binding compound of SEQ ID NO: 72] ?
47

Which p-Smad1/5/8 (%) is listed for ASAAPSSVPQALRSVKVAKV [GFR-binding compound of SEQ ID NO: 88] ?
37

What measured p-Smad1/5/8 (%) goes with KIPKASSTPTELSPINMLYF [GFR-binding compound of SEQ ID NO: 93] ?
47

I would be grateful if you could share the reported p-Smad1/5/8 (%) for VPTGQSAISMLYL [GFR-binding compound of SEQ ID NO: 95] .
52

Consider the binder ASASPSSVPQDLRSVKVAKV [GFR-binding compound of SEQ ID NO: 90] and give its measured p-Smad1/5/8 (%).
56
